experiment-notes: UV-Vis absorption and fluorescence spectroscopy of the Oxazine library
Format: physicochemical
stated-conditions: relative, references Oxazine 1, Oxazine 170, Rhodamine 101
measured-quantity: Quantum yield (%)

chemical_string=CCC/N=c1/cc2oc3cc(NCCC)c(C)cc3nc-2cc1C units_symbol=% number=42.15
chemical_string=CC/N=c1/cc2oc3cc(NCC)cc(C)c3nc-2c(C)c1 units_symbol=% number=32.50
chemical_string=CC/N=c1\ccc2nc3ccc(NCC)c(C)c3oc-2c1C units_symbol=% number=11.15
chemical_string=c1c2c(cc3c1N=c1cc4c(cc1O3)=NCCC4)NCCC2 units_symbol=% number=29.92
chemical_string=CC[N+](CC)=c1ccc2nc3cc4c(cc3oc-2c1)NCCO4 units_symbol=% number=4.34

----------
experiment-notes: UV-Vis absorption and fluorescence spectroscopy of the Oxazine library
Format: physicochemical
stated-conditions: relative, references Oxazine 1, Oxazine 170, Rhodamine 101
Quantum yield overview
measured-quantity: Quantum yield

chemical_string=CC/N=c1/cc2oc3cc4c(cc3nc-2cc1C)OCCN4CC result=31.70%
chemical_string=CC[N+](CC)=c1ccc2nc3cc(C)c(N)cc3oc-2c1 result=2.52%
chemical_string=CC[N+](CC)=c1ccc2nc3cc4c(cc3oc-2c1)NCC4 result=6.22%
chemical_string=CC/N=c1/cc2oc3cc(NCC)ccc3nc-2cc1C result=32.91%
chemical_string=CC/N=c1/cc2oc3cc4c(cc3nc-2cc1C)CCCN4CC result=23.58%
chemical_string=CC/N=c1/cc2oc3cc(NCC)c(Cl)cc3nc-2cc1Cl result=34.29%
chemical_string=CC/N=c1/cc2oc3c4c5c(cc3nc-2cc1C)CCCN5CCC4 result=10.14%
chemical_string=CCCNc1cc2oc3cc(=[N+](CC)CC)ccc-3nc2cc1C result=5.01%
chemical_string=CC/N=c1/cc2oc3cc(NCC)c(Cl)cc3nc-2cc1C result=37.22%
chemical_string=CCN1c2cc3oc4cc(=[N+](CC)CC)ccc-4nc3cc2C(C)=CC1(C)C result=6.82%
chemical_string=CC/N=c1/cc2oc3cc(NCC)cc(C)c3nc-2cc1C result=31.74%
chemical_string=CC1=CC(C)(C)Nc2cc3c(cc21)N=c1cc2c(cc1O3)=NC(C)(C)C=C2C result=17.27%
chemical_string=CCN(CC)c1cc2oc3cc(=[N+](CC)CC)ccc-3nc2cc1C result=1.53%
chemical_string=c1c2c(cc3c1N=c1cc4c(cc1O3)=NCC4)NCC2 result=28.25%
chemical_string=CC/N=c1/cc2oc3cc(N(CC)CC)c(C)cc3nc-2cc1C result=0.67%
chemical_string=CC/N=c1/cc2oc3cc(NC)c(C)cc3nc-2cc1C result=39.47%
chemical_string=CCNc1cc(C)c2nc3ccc(=[N+](CC)CC)cc-3oc2c1 result=6.12%
chemical_string=CCCNc1cc2oc3c/c(=N/CC)c(C)cc-3nc2cc1C result=39.77%
chemical_string=CN(C)c1ccc2nc3ccc(=[N+](C)C)cc-3oc2c1 result=9.56%
chemical_string=CC[N+](CC)=c1ccc2nc3ccc(N(C)C)cc3oc-2c1 result=7.99%

----------
Max Abs overview
experiment-notes: UV-Vis absorption and fluorescence spectroscopy of the Oxazine library
Format: physicochemical
measured-quantity: Max Abs (nm)

molecule=CCCNc1cc2oc3cc(=[N+](CC)CC)ccc-3nc2cc1C units_symbol=nm number=641
molecule=CC/N=c1/cc2oc3cc(NCC)cc(C)c3nc-2c(C)c1 units_symbol=nm number=606
molecule=CCN1CCc2cc3nc4ccc(=[N+](CC)CC)cc-4oc3cc21 units_symbol=nm number=643
molecule=CC/N=c1/cc2oc3cc(N(CC)CC)c(C)cc3nc-2cc1C units_symbol=nm number=645
molecule="CCN=c1cc2oc3cc(NCC)c(C)cc3nc-2cc1C.[O-][Cl+3]([O-])([O-])O [OX-4, reference compound]" units_symbol=nm number=618
molecule=CC/N=c1/cc2oc3c4c5c(cc3nc-2cc1C)CCCN5CCC4 units_symbol=nm number=648
molecule=CCNc1cc2oc3cc(=[N+](CC)CC)ccc-3nc2cc1C units_symbol=nm number=638
molecule=CC/N=c1\ccc2nc3ccc(NCC)c(C)c3oc-2c1C units_symbol=nm number=635
molecule=CC/N=c1/cc2oc3cc(NCC)c(F)cc3nc-2cc1C units_symbol=nm number=611

----------
experiment-notes: UV-Vis absorption and fluorescence spectroscopy of the Oxazine library
Type: physicochemical
Max Abs overview
measured-quantity: Max Abs (nm)

molecule=CCC/N=c1/cc2oc3cc(NCCC)c(C)cc3nc-2cc1C number=620
molecule=CC/N=c1/cc2oc3cc(NC)c(C)cc3nc-2cc1C number=616
molecule=CN(C)c1ccc2nc3ccc(=[N+](C)C)cc-3oc2c1 number=648
molecule=CC/N=c1/cc2oc3cc(N)c(C)cc3nc-2cc1C number=602
molecule=CC[N+](CC)=c1ccc2nc3cc4c(cc3oc-2c1)NCCC4 number=641
molecule=c1cc2nc3ccc(=[N+]4CCCCC4)cc-3oc2cc1N1CCCCC1 number=663
molecule=CC/N=c1/cc2oc3cc(NCC)ccc3nc-2cc1C number=617
molecule=C/N=c1/cc2oc3cc(NC)c(C)cc3nc-2cc1C number=612
molecule=CC/N=c1/cc2oc3cc(NCC)c(Cl)cc3nc-2cc1Cl number=620
molecule=CC[N+](CC)=c1ccc2nc3cc(C)c(N)cc3oc-2c1 number=628
molecule=CC/N=c1/cc2oc3cc(N(C)C)ccc3nc-2cc1C number=636
molecule=CC1=CC(C)(C)Nc2cc3c(cc21)N=c1cc2c(cc1O3)=NC(C)(C)C=C2C number=677
molecule=CC/N=c1/cc2oc3cc4c(cc3nc-2cc1C)CCCN4 number=624
molecule=c1c2c(cc3c1N=c1cc4c(cc1O3)=NCCC4)NCCC2 number=631
molecule=CC/N=c1/cc2oc3cc4c(cc3nc-2cc1C)CCCN4CC number=640
molecule=CC/N=c1\ccc2nc3ccc(NCC)cc3oc-2c1 number=617
molecule="CCN(CC)c1ccc2nc3ccc(=[N+](CC)CC)cc-3oc2c1.[O-][Cl+3]([O-])([O-])[O-] [OX-1, reference compound]" number=655
molecule=c1c2c(cc3c1Oc1cc4c(cc1=N3)OCCN=4)OCCN2 number=629
molecule=Cc1cc2nc3cc(C)c(=N)cc-3oc2cc1N number=590
molecule=c1cc2nc3ccc(=[N+]4CCCC4)cc-3oc2cc1N1CCCC1 number=655

----------
experiment-notes: UV-Vis absorption and fluorescence spectroscopy of the Oxazine library
Type: physicochemical
measured-quantity: Max Ex (nm)

molecule=CCN1CCc2cc3nc4ccc(=[N+](CC)CC)cc-4oc3cc21 measured_quantity="Max Ex" units_symbol=nm number=650
molecule="CCN(CC)c1ccc2nc3ccc(=[N+](CC)CC)cc-3oc2c1.[O-][Cl+3]([O-])([O-])[O-] [OX-1, reference compound]" measured_quantity="Max Ex" units_symbol=nm number=660
molecule=CC1=CC(C)(C)Nc2cc3c(cc21)N=c1cc2c(cc1O3)=NC(C)(C)C=C2C measured_quantity="Max Ex" units_symbol=nm number=680
molecule=CCN1CCCc2cc3nc4ccc(=[N+](CC)CC)cc-4oc3cc21 measured_quantity="Max Ex" units_symbol=nm number=660
molecule=C/N=c1/cc2oc3cc(NC)c(C)cc3nc-2cc1C measured_quantity="Max Ex" units_symbol=nm number=610
molecule=CC/N=c1/cc2oc3cc(NCC)c(Cl)cc3nc-2cc1C measured_quantity="Max Ex" units_symbol=nm number=615
molecule=CC/N=c1/cc2oc3cc4c(cc3nc-2cc1C)CCN4CC measured_quantity="Max Ex" units_symbol=nm number=630
molecule=CC/N=c1/cc2oc3cc(NCC)c(F)cc3nc-2cc1C measured_quantity="Max Ex" units_symbol=nm number=610
molecule=CCNc1ccc2nc3ccc(=[N+](CC)CC)cc-3oc2c1C measured_quantity="Max Ex" units_symbol=nm number=650

----------
experiment-notes: UV-Vis absorption and fluorescence spectroscopy of the Oxazine library
Format: physicochemical
Max Ex overview
measured-quantity: Max Ex (nm)

chemical_string=CC/N=c1/cc2oc3cc4c(cc3nc-2cc1C)OCCN4 number=625
chemical_string=CCNc1cc2oc3cc(=[N+](CC)CC)ccc-3nc2cc1F number=640
chemical_string=CC/N=c1/cc2oc3cc(N)c(C)cc3nc-2cc1C number=605
chemical_string=CC/N=c1/cc2oc3cc(N(CC)CC)c(C)cc3nc-2cc1C number=620
chemical_string=c1c2c(cc3c1N=c1cc4c(cc1O3)=NCCC4)NCCC2 number=630
chemical_string=CC/N=c1/cc2oc3cc(NCC)c(F)cc3nc-2cc1F number=610
